Origin of the recorded values: PubChem BioAssay

assay_remarks: sensitizers of A549 cells to miR-34 induction, primary screen, imaging, A549 dox-inducible miR-34, nuclei and caspase counts (AID 1347080); note: test concentration not given here
stated_conditions: A549 miR-34 inducible, Hoechst nuclei count, 48 h; measured here: total cells without miR-34 induction
Values of cell count strictly less than 10000 map to Condition met, and values of at least 10000 map to Condition not met.

compound	class_label
CC1CC2C3CCC4=CC(=O)C=CC4(C)[C@@]3(Cl)C(O)CC2(C)C1(O)C(=O)CO (stereo partly specified)	Condition met
CC(=O)[C@@]1(O)CCC2C3C[C@H](C)C4=CC(=O)C=CC4(C)[C@@]3(F)[C@@H](O)C[C@@]21C (stereo partly specified)	Condition met
O=C(O)c1cc(O)c2c(c1)[C@@H]([C@H]1c3cc(C(=O)O)cc(O)c3C(=O)c3c(O[C@H]4O[C@H](CO)[C@@H](O)[C@H](O)[C@H]4O)cccc31)c1cccc(O[C@H]3O[C@H](CO)[C@@H](O)[C@H](O)[C@H]3O)c1C2=O	Condition not met
CC1(C)SC2C(NC(=O)Cc3ccccc3)C(=O)N2C1C(=O)O (stereo unspecified)	Condition not met
CC(=O)c1ccc2c(c1)Sc1ccccc1N2CCCN1CCN(CCO)CC1	Condition met
CNCC[C@@H](Oc1ccccc1)c1ccccc1	Condition not met
C[C@]12C=CC(=O)C=C1CCC1C2[C@@H](O)C[C@@]2(C)C1CC[C@]2(O)C(=O)COC(=O)CCC(=O)O (stereo partly specified)	Condition met
O=C(O)CCCCC1SCC2NC(=O)NC21 (stereo unspecified)	Condition not met
O=C(CNC(=O)c1ccc(Cl)cc1)NO	Condition not met
CC(C)CCCC(C)[C@H]1CCC2C3CC=C4C[C@@H](O)CC[C@]4(C)C3CC[C@@]21C (stereo partly specified)	Condition not met
CC(=O)O[C@]1(C(C)=O)CCC2C3C=C(Cl)C4=CC(=O)CC[C@]4(C)C3CC[C@@]21C (stereo partly specified)	Condition not met
C[C@@H](c1ncncc1F)[C@](O)(Cn1cncn1)c1ccc(F)cc1F	Condition met
Cc1nc(N)cc(C[n+]2csc(CCO)c2C)n1	Condition not met
CCCCCCCCCCCCCCCC(=O)O[C@@H]1[C@@H](O)[C@@H](O)C([C@H](NC(=O)[C@@H]2C[C@@H](CCC)CN2C)[C@H](C)Cl)O[C@@H]1SC (stereo partly specified)	Condition not met
CC[C@]1(O)CC2CN(CCc3c([nH]c4ccccc34)[C@@](C(=O)OC)(c3cc4c(cc3OC)N(C=O)[C@H]3[C@@](O)(C(=O)OC)[C@H](OC(C)=O)[C@]5(CC)C=CCN6CC[C@]43[C@@H]65)C2)C1 (stereo partly specified)	Condition met
CO[C@H]1/C=C/O[C@@]2(C)Oc3c(C)c(O)c4c(O)c(c(C=NN5CCN(C6CCCC6)CC5)c(O)c4c3C2=O)NC(=O)/C(C)=C\C=C\[C@H](C)[C@H](O)[C@@H](C)[C@@H](O)[C@@H](C)[C@H](OC(C)=O)[C@@H]1C	Condition met
